Collected 100 nM Human C5 Bound (RU) values appear next to each entry.
molecular target: T1, Human C5 (human, UniProt P01031 19-1676); assay: SPR, mAb captured by anti-hFc, 37C
T1 construct: The natural protein has a beta and an alpha chain; also called complement factor 5; complement component 5
Your answer should be a plain number; it is taken to be in RU.

H4H12175P (antibody, human IgG4, V domains shown) VH: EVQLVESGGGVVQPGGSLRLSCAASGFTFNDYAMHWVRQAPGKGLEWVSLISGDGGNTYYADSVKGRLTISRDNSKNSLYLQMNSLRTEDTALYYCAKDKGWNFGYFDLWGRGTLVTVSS VL: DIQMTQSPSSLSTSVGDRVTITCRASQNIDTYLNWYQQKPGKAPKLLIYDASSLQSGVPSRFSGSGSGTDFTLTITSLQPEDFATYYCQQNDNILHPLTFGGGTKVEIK	132

Next binder, 100 nM Human C5 Bound (RU) to be filled in.
Exercise: 100 nM Human C5 Bound (RU) lookup needed for H4H12164P (antibody, human IgG4, V domains shown) VH: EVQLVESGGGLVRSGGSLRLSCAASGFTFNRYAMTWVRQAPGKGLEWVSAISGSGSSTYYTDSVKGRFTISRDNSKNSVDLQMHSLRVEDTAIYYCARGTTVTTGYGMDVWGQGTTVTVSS VL: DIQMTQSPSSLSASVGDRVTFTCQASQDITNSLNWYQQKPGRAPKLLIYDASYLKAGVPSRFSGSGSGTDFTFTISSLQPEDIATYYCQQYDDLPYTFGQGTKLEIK , thanks.
Key: 140
